subject.of.test: UniProt P35968
Sequence (P35968 20-1356): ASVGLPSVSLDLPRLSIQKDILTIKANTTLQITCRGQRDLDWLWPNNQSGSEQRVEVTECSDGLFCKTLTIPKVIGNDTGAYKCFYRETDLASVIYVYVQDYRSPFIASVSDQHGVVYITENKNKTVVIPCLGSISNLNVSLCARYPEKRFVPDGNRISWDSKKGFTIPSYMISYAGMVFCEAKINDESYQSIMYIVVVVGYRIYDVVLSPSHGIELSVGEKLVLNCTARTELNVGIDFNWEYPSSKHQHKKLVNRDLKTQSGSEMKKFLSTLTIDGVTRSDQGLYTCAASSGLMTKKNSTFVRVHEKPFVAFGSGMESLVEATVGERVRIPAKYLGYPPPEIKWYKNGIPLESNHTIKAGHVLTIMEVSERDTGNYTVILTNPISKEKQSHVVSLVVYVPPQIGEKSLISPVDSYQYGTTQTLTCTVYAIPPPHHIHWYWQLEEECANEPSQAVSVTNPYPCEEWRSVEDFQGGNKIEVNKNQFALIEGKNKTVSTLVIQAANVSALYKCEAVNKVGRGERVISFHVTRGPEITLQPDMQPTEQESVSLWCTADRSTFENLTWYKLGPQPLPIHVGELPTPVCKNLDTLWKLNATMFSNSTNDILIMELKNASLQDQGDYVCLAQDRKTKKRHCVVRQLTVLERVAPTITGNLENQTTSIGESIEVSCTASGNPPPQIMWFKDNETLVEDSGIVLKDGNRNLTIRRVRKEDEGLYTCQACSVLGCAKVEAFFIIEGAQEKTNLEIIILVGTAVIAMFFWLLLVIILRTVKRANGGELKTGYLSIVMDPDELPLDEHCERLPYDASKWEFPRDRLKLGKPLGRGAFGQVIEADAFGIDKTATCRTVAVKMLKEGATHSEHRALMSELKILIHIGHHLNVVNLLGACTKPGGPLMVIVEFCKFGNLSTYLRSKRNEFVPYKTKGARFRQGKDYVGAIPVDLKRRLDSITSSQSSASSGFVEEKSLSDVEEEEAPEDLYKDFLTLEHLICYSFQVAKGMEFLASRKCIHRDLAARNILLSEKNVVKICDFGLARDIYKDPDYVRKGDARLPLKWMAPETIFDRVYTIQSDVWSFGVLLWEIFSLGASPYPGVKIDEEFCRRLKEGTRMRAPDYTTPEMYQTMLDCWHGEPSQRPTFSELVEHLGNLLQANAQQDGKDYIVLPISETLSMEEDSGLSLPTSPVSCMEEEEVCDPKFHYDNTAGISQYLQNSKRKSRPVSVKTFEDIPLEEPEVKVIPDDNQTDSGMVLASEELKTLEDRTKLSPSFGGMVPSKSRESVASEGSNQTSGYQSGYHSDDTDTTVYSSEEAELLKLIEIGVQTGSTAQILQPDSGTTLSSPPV
observation.type: IC50 (nM)

[[record]]
compound = "COc1ccc(NC(=O)c2c(Nc3ccccc3)sc(C(=O)NN=Cc3cc(OC)c(OC)c(OC)c3)c2NC(C)=O)cc1 [Compound 23]"
value_reported = 5210


(1) COc1ccc(NC(=O)c2c(Nc3ccccc3)sc(C(=O)NN=Cc3ccc(OC)c(O)c3)c2NC(C)=O)cc1 [Compound 21]
(2) COc1ccc(NC(=O)c2c(Nc3ccccc3)sc(C#N)c2NC(=O)CNc2ccc([N+](=O)[O-])cc2)cc1 [Compound 10]
(3) COc1ccc(NC(=O)c2c(Nc3ccccc3)sc(C(=O)NN=Cc3ccc(Cl)cc3)c2NC(C)=O)cc1 [Compound 17]
Ranking field: IC50; order: falling. Answer by listing the labels in the requested order.
3, 2, 1

(A) COc1ccc(NC(=O)c2c(Nc3ccccc3)sc(C#N)c2NC(=O)CNc2ccc(Br)cc2)cc1 [Compound 6]
(B) COc1ccc(C=NNC(=O)c2sc(Nc3ccccc3)c(C(=O)Nc3ccc(OC)cc3)c2NC(C)=O)cc1 [Compound 20]
# query: argmin of IC50 over A and B I would appreciate it if you answered with the label of your choice.
A
(A: 930 nM, B: 1710 nM)
